- system_under_test: monoclonal antibody 23L-1Ca
- assay_remarks: competitive EIA: unlabeled ligand varied against HRP-labeled [Cys^19-NH2] rat TGR23-2 ligand (1-19) for 23L-1Ca (FIG. 6)
reported_metric: pIC50
Scale for pIC50: -log10 of concentration given in mol/L; no unit attached.

Value lookup for pIC50; key = SFRNGVGSGVKKTSFRRA [rat TGR23-2 ligand]
7.70

Values compiled from patent US20060177449A1.
